Target: Schistosoma mansoni thioredoxin glutathione reductase (TGR) (UniProt Q962Y6)
Experiment: qHTS Assay for the Inhibitors of Schistosoma Mansoni Peroxiredoxins; also: nearly all actives have a fitted effect of over 60% in size
Conditions: purified TGR, DTNB reduction, TNB absorbance 405 nm; series mostly up to 114 µM
In all, about 360,000 compounds went through this assay and about 11,000 (3.1%) were called active. Inconclusive results (about 4%) are left out. Calls follow the shape of the dose curve; as a rule, active = well fitted inhibition curve with a large enough effect; inconclusive = small, poorly fitted or top-dose-only effect; inactive = no such curve, though single readings can be large or run the other way. Many of the other results were omitted from the sample, so actives are more common in it than they were.
Select the matching outcome among active, inactive

Field: example entries. Status: answers known.
>>> assigned_category("COc1ccc2c(c1)C=C(C(=O)NCc1cc(Br)ccc1OC)CO2")
"inactive"
>>> assigned_category("CCc1ccc(NC(=O)CCS(=O)(=O)c2cc3c(cc2Cl)NC(=O)CO3)cc1")
"inactive"
>>> assigned_category("CSc1sc(C(=O)NC(=O)NCc2cccnc2)c(C)c1-c1ccon1")
"inactive"
>>> assigned_category("Cc1ccc(S(=O)(=O)n2nc(-c3ccc(Cl)cc3)nc2NCc2ccccc2)cc1")
"inactive"
>>> assigned_category("O=C(c1ccco1)n1nc(-c2ccc(Cl)cc2)nc1NCc1ccccc1")
"inactive"
>>> assigned_category("CCCCc1nn2c(=O)cc(COC(=O)c3ccc(NC(=O)c4ccccc4C)cc3)nc2s1")
"inactive"

Ask: GET /call?item= "CS(=O)(=O)n1nc(-c2ccccc2)nc1NCc1ccco1" returns the recorded outcome of this test.
Reply: active

* * *

Target: Schistosoma mansoni thioredoxin glutathione reductase (TGR) (UniProt Q962Y6)
Assay: qHTS Assay for the Inhibitors of Schistosoma Mansoni Peroxiredoxins; also: nearly all actives have a fitted effect of over 60% in size; also: potency is read from the fitted curve at half-maximal effect
Details: purified TGR, DTNB reduction, TNB absorbance 405 nm; series mostly up to 114 µM
The campaign covered roughly 360,000 compounds. About 11,000 (3.1%) were called active. Not shown: some 4% with an inconclusive outcome. What follows is part of a selection rich in actives, with near analogues and random picks from the rest.
measurement_label: Potency

Recorded results for 5 compounds are shown here.
>>> measured_result("COc1cc(Cl)c(C)cc1NC(=O)CSc1nnc(-c2cccnc2)n1Cc1ccco1")
"44.7 µM (active)"
>>> measured_result("Cn1c(SCC(=O)Nc2nccs2)nnc1-c1cccnc1")
"inactive"
>>> measured_result("COc1ccc(CNC(=O)COCc2cc(-c3cccs3)on2)cc1OC")
"inactive"
>>> measured_result("Cc1ccc(NC(=O)c2ccc3[nH]c(C)cc(=O)c3c2)c(C)c1")
"inactive"
>>> measured_result("CCc1cccc(-n2nnc(-c3nsc(NC(=O)c4ccc(C)cc4)n3)c2C)c1")
"inactive"

Let us move to another entry and its Potency.
Ask: // Potency lookup, key: "COC(=O)c1ccc(NC(=O)CCc2c(C)nc3c(c(C)nn3-c3ccc(C)cc3)c2C)cc1"
Reply: inactive

* * *

Molecular target: Schistosoma mansoni thioredoxin glutathione reductase (TGR) (UniProt Q962Y6)
Experiment: qHTS Assay for the Inhibitors of Schistosoma Mansoni Peroxiredoxins; also: nearly all actives have a fitted effect of over 60% in size
Details: purified TGR, DTNB reduction, TNB absorbance 405 nm; series mostly up to 114 µM
The whole screen tested about 360,000 compounds, of which about 11,000 (3.1%) were called active. About 4% were inconclusive and are not listed. Calls come from the whole dose curve; as a rule, active = well fitted inhibition curve with a large enough effect; inconclusive = small, poorly fitted or top-dose-only effect; inactive = no such curve, though single readings can be large or run the other way. Shown is part of a subset that was picked to be rich in actives.
Select the matching outcome among active, inactive

Field: example entries. Status: answers known.
>>> assigned_category("NC(=O)C1CCN(C2OC(=O)c3ccccc32)CC1 (stereo unspecified)")
"inactive"
>>> assigned_category("COc1ccc(CCNC(=O)CCCn2c(=O)c3ccccc3n(Cc3ccc(F)cc3Cl)c2=O)cc1OC")
"inactive"
>>> assigned_category("CCCCC(CC)CNC(=O)C(=O)C1C(=O)Nc2ccccc21 (stereo unspecified)")
"inactive"
>>> assigned_category("COc1ccc(-c2noc(CSc3nc(C)cc(=O)[nH]3)n2)cc1OC")
"inactive"

Ask: GET /call?item= "CC(=O)OC1=C(C(C)=O)N(Cc2ccccc2)S(=O)(=O)c2ccccc21" returns the recorded outcome of this test.
Reply: inactive

Ask: GET /call?item= CCSc1nnc2c(n1)OC(c1ccc(OCC(=O)O)cc1)Nc1ccccc1-2 (stereo unspecified) returns the recorded outcome of this test.
Reply: inactive

Ask: GET /call?item= "COC(=O)c1sccc1NN1C(=O)c2ccccc2C1=O" returns the recorded outcome of this test.
Reply: inactive

Ask: GET /call?item= COc1ccc(CCN2C(=O)C3CC=C(C)CC3C2=O)cc1OC (stereo unspecified) returns the recorded outcome of this test.
Reply: inactive

Ask: GET /call?item= "COC(=O)c1sccc1NC(=O)CCC1CCCC1" returns the recorded outcome of this test.
Reply: inactive

Ask: GET /call?item= "CCOC(=O)C(=CNNc1ccsc1C(=O)OC)C(=O)OCC" returns the recorded outcome of this test.
Reply: active

Ask: GET /call?item= "CCOC(=O)CC1=CC(=O)Nc2ccccc2N1" returns the recorded outcome of this test.
Reply: inactive

* * *

Target: Schistosoma mansoni thioredoxin glutathione reductase (TGR)
Experiment: qHTS Assay for the Inhibitors of Schistosoma Mansoni Peroxiredoxins; also: nearly all actives have a fitted effect of over 60% in size; also: potency is read from the fitted curve at half-maximal effect
Conditions: purified TGR, DTNB reduction, TNB absorbance 405 nm; series mostly up to 114 µM
Hit rate of the full screen: of about 360,000 compounds, about 11,000 (3.1%) were called active. Another 4% or so got no clear call; they are omitted. This is one part of a sample in which actives are shown more often than they occur.
measurement_label: Potency

Recorded results for 5 molecules are shown here.
>>> measured_result("O=[N+]([O-])c1cc(S(=O)(=O)CCCN2CCOCC2)ccc1F")
"7.08 µM (active)"
>>> measured_result("COc1ccccc1CCNC(=O)C(=O)NCCC1CCCCN1S(=O)(=O)c1cccs1 (stereo unspecified)")
"inactive"
>>> measured_result("CCn1c2ccc(F)cc2c2nnc(SCCN3CCOCC3)nc21")
"inactive"
>>> measured_result("CCOC(=O)c1cc2c(=O)n3ccccc3nc2n(CC2CCCO2)c1=NC(=O)c1ccccc1Br (stereo unspecified)")
"inactive"
>>> measured_result("Cc1ccc(Cn2c(C)c3cnn(CC(=O)NCc4ccccn4)c(=O)c3c2C)cc1")
"35.5 µM (active)"

Let us move to another entry and its Potency.
Ask: // Potency lookup, key: "COc1ccc(CNC(=O)c2cc3c(=O)[nH]c4ccccc4c3s2)cc1"
Reply: inactive

* * *

Biological target: Schistosoma mansoni thioredoxin glutathione reductase (TGR) (UniProt Q962Y6)
Assay: qHTS Assay for the Inhibitors of Schistosoma Mansoni Peroxiredoxins; also: nearly all actives have a fitted effect of over 60% in size; also: potency is read from the fitted curve at half-maximal effect
Settings: purified TGR, DTNB reduction, TNB absorbance 405 nm; series mostly up to 114 µM
Out of some 360,000 compounds screened, about 11,000 (3.1%) were called active. Another 4% or so got no clear call; they are omitted. The sample holds actives, similar compounds and a random draw of the others, so the mix is not that of the screen.
measurement_label: Potency

Recorded results for 5 compounds are shown here.
>>> measured_result("O=S(=O)(c1ccccc1)c1nc(-c2ccc(Cl)cc2Cl)oc1N1CCCCC1")
"inactive"
>>> measured_result("Cc1cccc(N2CCN(c3ccc(C(=O)O)cc3NC(=O)c3ccccc3F)CC2C)c1 (stereo unspecified)")
"inactive"
>>> measured_result("Cc1nnc(NC(=O)CCCOc2ccccc2)s1")
"inactive"
>>> measured_result("CC(Sc1oc(-c2ccco2)nc1S(=O)(=O)c1ccc(Br)cc1)c1ccccc1 (stereo unspecified)")
"inactive"
>>> measured_result("CCOC(=O)c1c(NC(=O)CSc2nnc(CN3CCOCC3)n2C)sc2c1CCCC2")
"inactive"

Ask: // Potency lookup, key: "O=C(CSCc1cccs1)N1CCCC1"
Reply: inactive

Ask: // Potency lookup, key: CC1CC(C)CN(C(=O)CSc2ccsc2[N+](=O)[O-])C1 (stereo unspecified)
Reply: inactive

Ask: // Potency lookup, key: "Nn1c(SCC(=O)Nc2nccs2)nnc1-c1ccco1"
Reply: inactive

Ask: // Potency lookup, key: "O=C(CSc1ccsc1[N+](=O)[O-])N1CCCCC1"
Reply: 31.6 µM (active)

Ask: // Potency lookup, key: "O=S(=O)(c1ccc(Cl)cc1)c1nc(-c2ccco2)oc1N1CCCCC1"
Reply: 14.1 µM (active)

Ask: // Potency lookup, key: "CCOC(=O)c1c(NC(=O)/C=C/c2ccco2)sc(C)c1C"
Reply: 35.5 µM (active)

* * *

Target: Schistosoma mansoni thioredoxin glutathione reductase (TGR)
Test: qHTS Assay for the Inhibitors of Schistosoma Mansoni Peroxiredoxins; also: nearly all actives have a fitted effect of over 60% in size
Settings: purified TGR, DTNB reduction, TNB absorbance 405 nm; series mostly up to 114 µM
Out of some 360,000 compounds screened, about 11,000 (3.1%) were called active. Inconclusive results (about 4%) are left out. The call rests on the fitted dose curve; in most records, active means well fitted inhibition curve with a large enough effect; inconclusive means small, poorly fitted or top-dose-only effect; inactive means no such curve, though single readings can be large or run the other way. The sample holds actives, similar compounds and a random draw of the others, so the mix is not that of the screen.
Select the matching outcome among 1 = active, 0 = inactive

Field: example entries. Status: answers known.
>>> assigned_category("Cn1cnc([N+](=O)[O-])c1Sc1n[nH]c(N)n1")
1
>>> assigned_category("Cc1ccc(-c2nn(-c3ccccc3)cc2/C=C2\\SC(=S)N(CCCCCC(=O)O)C2=O)o1")
1
>>> assigned_category("COC(=O)C(CC(=O)Nc1cc(C)ccc1C)Nc1ccccc1OC (stereo unspecified)")
0
>>> assigned_category("O=C(CSc1nc2c(c(=O)[nH]1)CN(Cc1ccc3c(c1)OCO3)CC2)Nc1cc(F)ccc1F")
0
>>> assigned_category("O=C(COC(=O)[C@H](Cc1ccccc1)NC(=O)c1cccs1)Nc1cc(F)ccc1F")
0
>>> assigned_category("CC1CCN(S(=O)(=O)c2ccc3c(c2)N(CC(=O)NCc2ccccc2Cl)C(=O)CO3)CC1")
0
>>> assigned_category("COc1ccc(C(=O)c2c(C)oc3cc([N+](=O)[O-])c(O)c([N+](=O)[O-])c23)cc1")
0
>>> assigned_category("CNC(=O)CN1C(=O)c2cccnc2Sc2ccccc21")
0

Ask: GET /call?item= "Cc1oc2cc(Br)c(O)c(Br)c2c1C(=O)c1ccccc1" returns the recorded outcome of this test.
Reply: 1

Ask: GET /call?item= "Cc1cccc(NC(=O)/C(=C\c2ccco2)NC(=O)c2ccccc2)c1" returns the recorded outcome of this test.
Reply: 1

Ask: GET /call?item= "Cc1c(Cl)cccc1NC(=O)Cn1cc(C(=O)c2cccs2)c2ccccc21" returns the recorded outcome of this test.
Reply: 0

Ask: GET /call?item= "O=C(O)CCC(=O)N(Cc1ccccc1)Cc1ccccc1" returns the recorded outcome of this test.
Reply: 0
